Test system: Blood cancer cells RS4; 11
assaySummary: CellTiter Glo test: growth inhibition of cells
Assay type: cell-based
cond: Homo sapiens, 11 cells, 72 h, cell viability
Each entry below lists one item and its recorded IC50 value.

O=C1N/C(=C\c2c[nH]c3c(F)c(Cl)ccc23)C(=O)N1C(CO)c1ccc(Cl)c(F)c1 (centres unmarked) :: ≤ 1000 nM

Kindly review the next compound as well.
Reported IC50 for O=C(NC(CO)CO)C(c1ccc(F)c(F)c1)N1C(=O)N/C(=C\c2c[nH]c3cc(Cl)ccc23)C1=O (centres unmarked) was 1000 to 10000 nM

* * *

Each entry below lists one item and its recorded pIC50 value.
Test system: Blood cancer cells RS4; 11
assaySummary: CellTiter Glo test: growth inhibition of cells
Type: cell-based
cond: Homo sapiens, 11 cells, 72 h, cell viability
Procedure: Test of Candidate Compounds on Growth Inhibition of Cells Determined by CellTiter Glo Blood cancer cells RS4; 11 were inoculated into the 96-well cell culture plate through Multidrop 3000 cells per well, with a volume of 100 μL. The final compound concentration ranged from 50 μM to 0.01 μM at 9 concentration gradients and the DMSO final concentration was 0.1%. […]
pIC50: −log10 of the molar value.

These recorded examples may help you get a feel for the data.
N#Cc1ccc([C@@H](CO)N2C(=O)N/C(=C\c3c[nH]c4cc(Cl)ccc34)C2=O)cc1 :: ≥ 6.00
O=C1N/C(=C\c2c[nH]c3cc(Cl)ccc23)C(=O)N1C(CO)c1ccc(Cl)cc1 (stereo not drawn) :: ≥ 6.00
Cc1c(Cl)ccc2c(/C=C3\NC(=O)N(C(C(=O)NCCO)c4ccc(Cl)cc4)C3=O)c[nH]c12 (stereo not drawn) :: ≥ 6.00
O=C1N/C(=C\c2c[nH]c3cc(Cl)ccc23)C(=O)N1C(CO)c1ccc(F)c(F)c1 (stereo not drawn) :: ≥ 6.00
N#Cc1ccc(CN2C(=O)N/C(=C\c3c[nH]c4c(F)c(Cl)ccc34)C2=O)cc1F :: ≥ 6.00
O=C1N/C(=C\c2c[nH]c3c(F)c(Cl)ccc23)C(=O)N1Cc1ccc(Cl)cc1F :: ≥ 6.00

Case O=C1N/C(=C\c2c[nH]c3c(F)c(Cl)ccc23)C(=O)N1C(CO)c1cc(F)c(Cl)cc1F (stereo not drawn) , Blood cancer cells RS4; 11, pIC50 recorded as 5.00 to 6.00

Case Cc1c(Cl)ccc2c(/C=C3\NC(=O)N(C(C(=O)NC45CC(O)(C4)C5)c4ccc(F)c(F)c4)C3=O)c[nH]c12 (stereo not drawn) , Blood cancer cells RS4; 11, pIC50 recorded as ≥ 6.00

Case Cc1c(Cl)ccc2c(/C=C3\NC(=O)N(C(C(=O)NCCO)c4ccc(C#N)cc4)C3=O)c[nH]c12 (stereo not drawn) , Blood cancer cells RS4; 11, pIC50 recorded as ≥ 6.00

Case O=C1N/C(=C\c2c[nH]c3c(OCF)c(Cl)ccc23)C(=O)N1Cc1ccc(Cl)cc1 , Blood cancer cells RS4; 11, pIC50 recorded as < 5.00

Case N#Cc1ccc(C(C(=O)NC(CO)CO)N2C(=O)N/C(=C\c3c[nH]c4c(F)c(Cl)ccc34)C2=O)cc1F (stereo not drawn) , Blood cancer cells RS4; 11, pIC50 recorded as ≥ 6.00

Case O=C1N/C(=C\c2c[nH]c3cc(Cl)ccc23)C(=O)N1Cc1ccc(F)c(F)c1 , Blood cancer cells RS4; 11, pIC50 recorded as 5.00 to 6.00

Case N#Cc1ccc(C(C(=O)NCCO)N2C(=O)N/C(=C\c3cn(P(=O)(O)O)c4c(F)c(Cl)ccc34)C2=O)cc1F (stereo not drawn) , Blood cancer cells RS4; 11, pIC50 recorded as 5.00 to 6.00

Case COc1c(Cl)ccc2c(/C=C3\NC(=O)N(Cc4ccc(F)c(F)c4)C3=O)c[nH]c12 , Blood cancer cells RS4; 11, pIC50 recorded as 5.00 to 6.00
